# assayed target: T1, CD28 (endogenously expressed on Jurkat/IL2 reporter cells) (human, UniProt P10747 19-220)
# T1 construct: Endogenous CD28 of Jurkat cells; also called human CD28
# protocol description: flow cytometry MFI at 33.3 nM relative to WT CD80 ECD-Fc (R&D), Jurkat cells
reported property: Fold change to WT (fold)

variant CD80 IgV-Fc A26E/Q33R/E35D/M47L/L85Q (Fc fusion, not shown: a dimerising Fc or GST) VIHVTKEVKEVATLSCGHNVSVEELEQTRIYWRKDKKMVLTMMSGDLNIWPEYKNRTIFDITNNLSIVILALRPSDEGTYECVVQKYEKDAFKREHLAEVTLSVKAD = 0.03
variant CD80 IgV-Fc Q27H/Q33L/E35D/M47V/N55D/L85Q/K89N (Fc fusion, not shown: a dimerising Fc or GST) VIHVTKEVKEVATLSCGHNVSVEELAHTRIYWLKDKKMVLTMMSGDVNIWPEYKDRTIFDITNNLSIVILALRPSDEGTYECVVQKYENDAFKREHLAEVTLSVKAD = 0.04
variant CD80 IgV-Fc Q33L/E35D/T41S/M47V (Fc fusion, not shown: a dimerising Fc or GST) VIHVTKEVKEVATLSCGHNVSVEELAQTRIYWLKDKKMVLSMMSGDVNIWPEYKNRTIFDITNNLSIVILALRPSDEGTYECVVLKYEKDAFKREHLAEVTLSVKAD = 0.04
variant CD80 IgV-Fc Y31S/E35D/M47L/T79L/E88G (Fc fusion, not shown: a dimerising Fc or GST) VIHVTKEVKEVATLSCGHNVSVEELAQTRISWQKDKKMVLTMMSGDLNIWPEYKNRTIFDITNNLSIVILALRPSDEGLYECVVLKYGKDAFKREHLAEVTLSVKAD = 0.04
variant CD80 IgV-Fc E7D/E35D/M47I/L97Q (Fc fusion, not shown: a dimerising Fc or GST) VIHVTKDVKEVATLSCGHNVSVEELAQTRIYWQKDKKMVLTMMSGDINIWPEYKNRTIFDITNNLSIVILALRPSDEGTYECVVLKYEKDAFKREHQAEVTLSVKAD = 0.04
variant CD80 IgV-Fc E35D/M47I/E77A/L85Q/R94W (Fc fusion, not shown: a dimerising Fc or GST) VIHVTKEVKEVATLSCGHNVSVEELAQTRIYWQKDKKMVLTMMSGDINIWPEYKNRTIFDITNNLSIVILALRPSDAGTYECVVQKYEKDAFKWEHLAEVTLSVKAD = 0.04
variant CD80 IgV-Fc Q33L/E35D/M47V/L85Q (Fc fusion, not shown: a dimerising Fc or GST) VIHVTKEVKEVATLSCGHNVSVEELAQTRIYWLKDKKMVLTMMSGDVNIWPEYKNRTIFDITNNLSIVILALRPSDEGTYECVVQKYEKDAFKREHLAEVTLSVKAD = 0.04
variant CD80 IgV-Fc A26E/E35D/M43T/M47L/L85Q/R94Q (Fc fusion, not shown: a dimerising Fc or GST) VIHVTKEVKEVATLSCGHNVSVEELEQTRIYWQKDKKMVLTMTSGDLNIWPEYKNRTIFDITNNLSIVILALRPSDEGTYECVVQKYEKDAFKQEHLAEVTLSVKAD = 0.03
